Cited source for all entries: ChEMBL document CHEMBL3779865

molecular target: Histone acetyltransferase p300 (Homo sapiens); assay: Binding affinity to human His6-tagged EP300 (A1040 to G1161 residues) expressed in Escherichia coli BL21(DE3) cells at 200 uM incubated for 30 mins by SYPRO orange staining based fluorescence thermal shift assay
Our labelling divides records by ΔTm into ranges: low class: < 1 °C; middle class: ≥ 1 °C and < 5 °C; high class: ≥ 5 °C

# count of solved cases: 5
{"columns": ["COMPOUND_SMILES", "TGT", "CATEGORY"],
 "data": [
  ["CCN1C(=O)c2cccc3c(S(=O)(=O)NC4CCCCC4)ccc1c23", "Histone acetyltransferase p300 (Homo sapiens)", "middle class"],
  ["CCN1C(=O)c2cccc3c(S(=O)(=O)Nc4ccccc4C(=O)O)ccc1c23", "Histone acetyltransferase p300 (Homo sapiens)", "high class"],
  ["CCOC(=O)Nc1cc(-c2ccc(C)c(NS(C)(=O)=O)c2)nn2c(C)nnc12", "Histone acetyltransferase p300 (Homo sapiens)", "high class"],
  ["CCN1C(=O)c2cccc3c(NS(=O)(=O)c4cc(Br)ccc4OC)ccc1c23", "Histone acetyltransferase p300 (Homo sapiens)", "middle class"],
  ["CCN1C(=O)c2cccc3c(NS(=O)(=O)C4CCCCC4)ccc1c23", "Histone acetyltransferase p300 (Homo sapiens)", "middle class"]
]}

Which class is correct for the following molecule? "CCN1C(=O)c2cccc3c(S(=O)(=O)Nc4ccc(F)cc4)ccc1c23"
middle class

Exercise: read the entry "CCCNS(=O)(=O)c1ccc2c3c(cccc13)C(=O)N2CC" and state which class it falls under.
middle class

Please report the category associated with "CCN1C(=O)c2cccc3c(S(=O)(=O)NCCCN4CCN(C)CC4)ccc1c23" , nothing else.
low class

Class for "CCN1C(=O)c2cccc3c(NS(=O)(=O)c4cc(Cl)ccc4OC)ccc1c23" ?
middle class

Which ΔTm band matches "COc1ccc(CCc2nc3cc(-c4c(C)noc4C)ccc3n2C[C@H](C)N2CCOCC2)cc1Cl" ?
high class
